These data points were gathered from patent US12502380B2.

Molecular target: Human MrgprX2 (Homo sapiens, UniProt Q96LB1)
Construct: expressed in transfected cells
Sequence (Q96LB1 1-330): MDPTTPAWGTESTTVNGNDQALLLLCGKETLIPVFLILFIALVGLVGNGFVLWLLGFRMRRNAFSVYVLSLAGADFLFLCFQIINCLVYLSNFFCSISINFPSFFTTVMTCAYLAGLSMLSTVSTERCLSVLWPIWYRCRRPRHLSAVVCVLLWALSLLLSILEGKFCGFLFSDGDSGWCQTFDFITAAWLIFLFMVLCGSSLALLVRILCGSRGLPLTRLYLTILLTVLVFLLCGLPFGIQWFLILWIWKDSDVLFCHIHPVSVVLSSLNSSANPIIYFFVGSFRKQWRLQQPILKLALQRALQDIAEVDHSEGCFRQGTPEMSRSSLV
Test: Human MrgprX2 antagonist FLIPR intracellular calcium mobilization assay
Format: cell-based
Details: antagonist activity, recombinant hMrgpMRGPRX2 expressing cells, read-out: Human MrgprX2 Antagonist pIC50 (converted)
Just a reminder that ties go to false (0): only IC50 strictly below 300 nM counts as true (1).

>>> group_label("C[C@H]1CN(C(=O)Nc2ncc(Cc3cccc(F)c3)s2)CCO1")
"false (0)"
>>> group_label("C[C@]1(C(=O)Nc2ncc(Cc3cc(F)cc(F)c3)s2)CCOC1 (single isomer, unassigned)")
"true (1)"
>>> group_label("C[C@H](O)CN(C)C(=O)Nc1ncc(Oc2cccc(C#N)c2)s1")
"true (1)"
>>> group_label("C[C@H](O)CN(C)C(=O)Nc1ncc(Oc2ccc(F)nc2)s1")
"true (1)"
>>> group_label("CCN(C[C@H](C)O)C(=O)Nc1nc(C#N)c(Oc2ccc(F)cc2)s1")
"false (0)"
>>> group_label("O=C(Nc1ncc(Cc2ccccc2F)s1)C1CCOC1 (stereo not drawn)")
"false (0)"
>>> group_label("C[C@H](O)CN(C)C(=O)Nc1ncc(Oc2cncc(C#N)c2)s1")
"false (0)"
>>> group_label("CN(C[C@@H](O)C(F)(F)F)C(=O)Nc1ncc(Cc2cccc(F)c2)s1")
"true (1)"
>>> group_label("CCN(CCO)C(=O)Nc1ncc(Cc2cccc(F)c2)s1")
"true (1)"
